# SYSTEM: ATP-dependent 6-phosphofructokinase (Trypanosoma brucei brucei) (UniProt O15648)
# Sequence (O15648 whole entry, looked up): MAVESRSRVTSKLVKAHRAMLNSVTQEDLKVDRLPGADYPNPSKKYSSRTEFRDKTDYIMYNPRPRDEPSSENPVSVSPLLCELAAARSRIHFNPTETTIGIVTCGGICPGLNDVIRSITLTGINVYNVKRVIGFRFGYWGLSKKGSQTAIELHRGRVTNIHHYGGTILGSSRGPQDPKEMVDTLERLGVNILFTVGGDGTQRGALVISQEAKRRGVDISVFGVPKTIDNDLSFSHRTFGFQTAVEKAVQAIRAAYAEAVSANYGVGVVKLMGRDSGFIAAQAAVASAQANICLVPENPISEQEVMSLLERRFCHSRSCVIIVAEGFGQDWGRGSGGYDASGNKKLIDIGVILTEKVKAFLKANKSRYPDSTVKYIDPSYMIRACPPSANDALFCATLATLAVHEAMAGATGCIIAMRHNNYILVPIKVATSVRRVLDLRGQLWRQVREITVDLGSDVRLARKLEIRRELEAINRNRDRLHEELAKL
# MEASUREMENT_NOTES: qHTS Assay to Find Inhibitors of T. brucei phosphofructokinase: hit validation (AID 492961);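 also: luminescence reports ADP formed as PFK phosphorylates fructose-6-phosphate with ATP; % is scaled to controls: 0 for no effect and ±100 for the full control effect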
# REPORTED_CONDITIONS: T. brucei PFK, ADP-Glo luminescence; series mostly up to 51.4 µM
# Text: NIH Molecular Libraries Probe Production Network [MLPCN] NIH Chemical Genomics Center [NCGC] Grant: 1 R03 MH092153-01 PI Name: Malcolm Walkinshaw, University of Edinburgh NCGC Assay Overview: Various species of the protozoan family Trypanosomatidae are responsible for a range of serious human diseases in tropical and subtropical areas of the world. […] A luminescence-based assay for T. brucei PFK activity has been developed which uses luciferase to detect production of ADP. […]
Results filed as inconclusive are left out. The source made the active and inactive calls. Calls follow the shape of the dose curve; as a rule, active = well fitted inhibition curve with a large enough effect; inconclusive = small, poorly fitted or top-dose-only effect, or effect the other way; inactive = flat fitted curve, though single readings scatter.
TEST_READOUT: outcome

MOLECULE: O=C(OC[C@@H]1O[C@@](O)(COC(=O)c2cccnc2)[C@H](OC(=O)c2cccnc2)[C@H]1OC(=O)c1cccnc1)c1cccnc1
RESULT: inactive
--
MOLECULE: CC(=O)O[C@]1(C(C)=O)CCC2C3CCC4=CC(=O)CCC4(C)C3(F)C(O)CC21C (some centres undefined)
RESULT: inactive
--
MOLECULE: CC1=C(/C=C/C(C)=C\C=C\C(C)=C\C=C\C=C(C)\C=C\C=C(C)\C=C\C2=C(C)C[C@@H](O)CC2(C)C)C(C)(C)C[C@H](O)C1
RESULT: inactive
--
MOLECULE: CCN1CCN(C(=O)NC(C(=O)NC2C(=O)N3C(C(=O)O)=C(CSc4nnnn4C)CSC23)c2ccc(O)cc2)C(=O)C1=O (centres undefined)
RESULT: inactive

* * *

# MEASUREMENT_NOTES: Cell Viability - LYMP2-022 (AID 987);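 also: cells exposed to compound for 24 hr; nearly all actives have a fitted effect of over 55% in size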
# REPORTED_CONDITIONS: LYMP2-022 lymphoblastoid cell viability; series mostly up to 92.2 µM
Inconclusive results are not listed. Calls of active or inactive are those of the source. Calls come from the whole dose curve; as a rule, active = well fitted cell-killing curve with a large enough effect; inconclusive = small, poorly fitted or top-dose-only effect; inactive = flat fitted curve, though single readings scatter.
One label from this list, please: active, inactive

Consider the worked cases shown below.
COMPOUND: CCCCCC/C(C=O)=C\c1ccccc1
CAT: inactive
//
COMPOUND: CC(=O)Nc1ccc(C(=O)CCl)cc1
CAT: active
//
COMPOUND: O=C1OC(O)C(C(Cl)Cl)=C1Cl (centres undefined)
CAT: active
//
COMPOUND: c1ccc2c(c1)-c1cccc3c1c-2cc1ccccc13
CAT: inactive
//
COMPOUND: CCC(C)Nc1ccc(NC(C)CC)cc1 (centres undefined)
CAT: active
//
COMPOUND: O=C(/C=C/c1ccc(O)c(O)c1)OC1C[C@](O)(C(=O)O)C[C@@H](O)[C@H]1O (some centres undefined)
CAT: inactive

Next up:
Per the records of this test, what outcome belongs to "Nc1ccc2cc3ccccc3cc2c1" ?
inactive

* * *

# Test system: CP203
# MEASUREMENT_NOTES: qHTS profiling for inhibitors of Plasmodium falciparum proliferation (AID 504749); also: nearly all actives have a fitted effect of over 60% in size
# REPORTED_CONDITIONS: P. falciparum in erythrocytes, SYBR Green DNA, 72 h; series mostly up to 28.7 µM
Inconclusive results are not listed. Calls of active or inactive are those of the source. The call rests on the fitted dose curve; in most records, active means well fitted inhibition curve with a large enough effect; inconclusive means small, poorly fitted or top-dose-only effect; inactive means flat fitted curve, though single readings scatter.
Outcomes you can answer with include only these: label 1 for active, label 0 for inactive

Take a look at these entries with their results.
COMPOUND: CCCCCCCCCCCCCCCC(=O)OC[C@H](O)[C@H]1OC[C@@H](O)[C@@H]1O
SYSTEM: CP203
CAT: label 0
--
COMPOUND: CN1[C@H]2CC(OC(=O)[C@H](CO)c3ccccc3)C[C@H]1[C@H]1O[C@H]12 (stereo partly specified)
SYSTEM: CP203
CAT: label 0
--
COMPOUND: CC[C@@H](C)C(N)C(=O)O (stereo partly specified)
SYSTEM: CP203
CAT: label 0
--
COMPOUND: C=C1CCC(O)C/C1=C/C=C1\CCC[C@]2(C)[C@@H]([C@H](C)/C=C/[C@H](C)C(C)C)CC[C@@H]12 (stereo partly specified)
SYSTEM: CP203
CAT: label 0
--
COMPOUND: CO/N=C(/C(=O)N[C@@H]1C(=O)N2C(C(=O)O)=C(C[n+]3ccc(N)n3CCO)CS[C@H]12)c1csc(N)n1
SYSTEM: CP203
CAT: label 0

How did this test come out for "Cc1ccccc1N1C(=O)c2cc(N)ccc2N/C1=C\F" ?
label 0

Just curious, what result did C[C@H]1[C@@H](OC(=O)CCC(=O)O)OC2OC3(C)CC[C@H]4[C@H](C)CC[C@@H]1[C@@]24OO3 (stereo partly specified) get here?
label 1

* * *

# System: CP269
# MEASUREMENT_NOTES: qHTS profiling for inhibitors of Plasmodium falciparum proliferation (AID 504749); also: nearly all actives have a fitted effect of over 60% in size
# REPORTED_CONDITIONS: P. falciparum in erythrocytes, SYBR Green DNA, 72 h; series mostly up to 28.7 µM
Results filed as inconclusive are left out. The source made the active and inactive calls. Calls follow the shape of the dose curve; as a rule, active = well fitted inhibition curve with a large enough effect; inconclusive = small, poorly fitted or top-dose-only effect; inactive = flat fitted curve, though single readings scatter.
Thanks in advance; please answer with one of these: 1 for active, 0 for inactive

COMPOUND: COC(c1ccccc1)(c1ccccc1)C(Oc1nc(C)cc(C)n1)C(=O)O (stereo not drawn)
SYSTEM: CP269
CAT: 0

Called result for "CO[C@H]1C[C@@H]2CC[C@@H](C)[C@@](O)(O2)C(=O)C(=O)N2CCCC[C@H]2C(=O)O[C@H]([C@H](C)C[C@@H]2CC[C@@H](O)[C@H](OC)C2)CC(=O)[C@H](C)/C=C(\C)[C@@H](O)[C@@H](OC)C(=O)[C@H](C)C[C@H](C)/C=C/C=C/C=C/1C"
1

Which result was noted for this compound in the test: "C#C[C@]1(O)CC[C@H]2[C@H]3[C@H](CC[C@@]21C)C1=C(CC(=O)CC1)C[C@@H]3C"
0

What is the recorded call for this compound in the test? C=C[C@H]1CN2CCC1C[C@H]2[C@H](O)c1ccnc2ccc(OC)cc12 (stereo partly drawn)
1

* * *

# Tested on: CP217
# MEASUREMENT_NOTES: qHTS profiling for inhibitors of Plasmodium falciparum proliferation (AID 504749); also: nearly all actives have a fitted effect of over 60% in size; also: potency is read from the fitted curve at half-maximal effect
# REPORTED_CONDITIONS: P. falciparum in erythrocytes, SYBR Green DNA, 72 h; series mostly up to 28.7 µM
Records with an inconclusive call do not appear. The source made the active and inactive calls. Calls come from the whole dose curve; as a rule, active = well fitted inhibition curve with a large enough effect; inconclusive = small, poorly fitted or top-dose-only effect; inactive = flat fitted curve, though single readings scatter.
TEST_READOUT: Potency

COMPOUND: O=C1C(I)=CC(=C(c2cc(I)c(O)c(I)c2)c2ccccc2C(=O)O)C=C1I
RESULT: inactive
--
COMPOUND: OCC1OC(O)C(O)C(O)C1O (configuration not stated)
RESULT: inactive
--
COMPOUND: C=C1[C@@H]2CC[C@H](C2)C1(C)C
RESULT: inactive
--
COMPOUND: OCC(O)C(O)C(O)C(O)CO (configuration not stated)
RESULT: inactive
--
COMPOUND: CC(C)CCCC(C)C1CC(=O)C2=C3CCC4CC(O)CCC4(C)C3CCC21C (configuration not stated)
RESULT: inactive
--
COMPOUND: Cc1cc2nc3c(=O)[nH]c(=O)nc-3n(CC(O)C(O)C(O)COP(=O)(O)O)c2cc1C (configuration not stated)
RESULT: inactive
--
COMPOUND: COc1cc(/C=C2\CCC/C(=C\c3ccc(O)c(OC)c3)C2=O)ccc1O
RESULT: 11200 nM (active)
--
COMPOUND: C=CC1CN2CCC1CC2[C@@H](O)c1ccnc2ccc(OC)cc12 (some centres not stated)
RESULT: 501 nM (active)

State Potency on CP217. Entry: CC(O)C(N)C(=O)O (configuration not stated)
inactive

Report value: Potency, system: CP217, compound: "Nc1nc(F)nc2c1ncn2[C@@H]1O[C@H](CO)[C@@H](O)[C@H]1O"
inactive

Fill in Potency for CC(C)C(=O)OCC(=O)[C@@]12OC(C3CCCCC3)O[C@@H]1CC1C3CCC4=CC(=O)C=C[C@]4(C)C3[C@@H](O)C[C@@]12C (some centres not stated) tested with CP217.
794 nM (active)

Tell me Potency of "CCN(CC)C(=O)Nc1ccc(OC[C@H](O)CNC(C)(C)C)c(C(C)=O)c1" when tested on CP217.
inactive

* * *

# MEASUREMENT_NOTES: Stat Signaling Pathway (AID 446);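 also: ME-180 cervical cancer cells given 40 pM IL-6 alongside compound; SIE-controlled beta-lactamase reporter measured as 460/530 nm FRET emission ratio; % is scaled to controls: 0 for no effect and ±100 for the full control effect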
# REPORTED_CONDITIONS: ME-180 (cervical carcinoma) SIE beta-lactamase reporter, IL-6 stimulated, 5 h; at 17.2 µM (top of the series) unless noted
Records with an inconclusive call do not appear. Active and inactive are the calls of the source. Calls come from the whole dose curve; as a rule, active = well fitted curve in either direction with a large enough effect (not every such curve was filed as active); inconclusive = small, poorly fitted or top-dose-only effect, or another doubt; inactive = flat fitted curve, though single readings scatter.
TEST_READOUT: activity, negative = inhibition

See these solved cases before continuing.
COMPOUND: COC(=O)CSc1nc(-c2cccs2)ccc1C#N
TEST_READOUT: activity, negative = inhibition
RESULT: -2.18% (inactive)

COMPOUND: C=CCN(C(=O)CCC(=O)O)C1CC(=O)N(c2ccc(OCCC)cc2)C1=O (stereo not drawn)
TEST_READOUT: activity, negative = inhibition
RESULT: -6.77% (inactive)

COMPOUND: COC(=O)[C@@H](N)Cc1ccc(O)cc1
TEST_READOUT: activity, negative = inhibition
RESULT: -6.81% (inactive)

COMPOUND: Cn1c(=O)c2c(nc(Oc3ccc4c(c3)OCO4)n2Cc2ccc(Br)cc2)n(C)c1=O
TEST_READOUT: activity, negative = inhibition
RESULT: -4.55% (inactive)

COMPOUND: CCOC(=O)C(C)Sc1nc(-c2cccs2)ccc1C#N (stereo not drawn)
TEST_READOUT: activity, negative = inhibition
RESULT: -3.63% (inactive)

Identify activity, negative = inhibition associated with the compound "CC1(C)CC(=O)c2cc(C(=O)N3CCCC(C)(C)C3)c(=O)n(-c3ccccc3)c2C1"
-7.18% (inactive)

Please give measured activity, negative = inhibition of the following entry: "Cc1ccc(-n2ncc3c(NCc4ccc5c(c4)OCO5)ncnc32)c(C)c1"
-19.8% (inactive)

Complete the entry with activity, negative = inhibition for "O=CNC(=O)c1ccccc1C(=O)O"
20.3% (inactive)

Answer with reported activity, negative = inhibition of "Cc1cc(CC(=O)O)c(C)cc1CC(=O)O"
2.12% (inactive)

Given "Cc1ccccc1OCc1nc2ccccc2c(=O)n1NC(=O)c1ccco1" , respond with its activity, negative = inhibition.
1.48% (inactive)

# return recorded activity, negative = inhibition for entry "O=C(Nc1ncn[nH]1)c1c(Cl)ccc(Cl)c1Cl"
-0.714% (inactive)

In one line, give reported activity, negative = inhibition of the entry CN(C1CCS(=O)(=O)C1)S(=O)(=O)c1cccc2nsnc12 (stereo not drawn) .
1.43% (inactive)

Indicate its recorded activity, negative = inhibition; the compound in question is O=C1C(=O)N(Cc2cccnc2)C(c2ccccn2)/C1=C(/O)c1ccc(F)cc1 (stereo not drawn)
0.323% (inactive)

Report activity, negative = inhibition for CCCc1[nH]nc2c1C(c1cccc(OC)c1)C(C#N)=C(N)O2 (stereo not drawn)
-24.8% (inactive)
